system.tested: Ba/F3-FL-TYK2-E957D cells (Homo sapiens, UniProt P29597, E957D, cells depend on it)
Sequence (P29597 whole entry E957D): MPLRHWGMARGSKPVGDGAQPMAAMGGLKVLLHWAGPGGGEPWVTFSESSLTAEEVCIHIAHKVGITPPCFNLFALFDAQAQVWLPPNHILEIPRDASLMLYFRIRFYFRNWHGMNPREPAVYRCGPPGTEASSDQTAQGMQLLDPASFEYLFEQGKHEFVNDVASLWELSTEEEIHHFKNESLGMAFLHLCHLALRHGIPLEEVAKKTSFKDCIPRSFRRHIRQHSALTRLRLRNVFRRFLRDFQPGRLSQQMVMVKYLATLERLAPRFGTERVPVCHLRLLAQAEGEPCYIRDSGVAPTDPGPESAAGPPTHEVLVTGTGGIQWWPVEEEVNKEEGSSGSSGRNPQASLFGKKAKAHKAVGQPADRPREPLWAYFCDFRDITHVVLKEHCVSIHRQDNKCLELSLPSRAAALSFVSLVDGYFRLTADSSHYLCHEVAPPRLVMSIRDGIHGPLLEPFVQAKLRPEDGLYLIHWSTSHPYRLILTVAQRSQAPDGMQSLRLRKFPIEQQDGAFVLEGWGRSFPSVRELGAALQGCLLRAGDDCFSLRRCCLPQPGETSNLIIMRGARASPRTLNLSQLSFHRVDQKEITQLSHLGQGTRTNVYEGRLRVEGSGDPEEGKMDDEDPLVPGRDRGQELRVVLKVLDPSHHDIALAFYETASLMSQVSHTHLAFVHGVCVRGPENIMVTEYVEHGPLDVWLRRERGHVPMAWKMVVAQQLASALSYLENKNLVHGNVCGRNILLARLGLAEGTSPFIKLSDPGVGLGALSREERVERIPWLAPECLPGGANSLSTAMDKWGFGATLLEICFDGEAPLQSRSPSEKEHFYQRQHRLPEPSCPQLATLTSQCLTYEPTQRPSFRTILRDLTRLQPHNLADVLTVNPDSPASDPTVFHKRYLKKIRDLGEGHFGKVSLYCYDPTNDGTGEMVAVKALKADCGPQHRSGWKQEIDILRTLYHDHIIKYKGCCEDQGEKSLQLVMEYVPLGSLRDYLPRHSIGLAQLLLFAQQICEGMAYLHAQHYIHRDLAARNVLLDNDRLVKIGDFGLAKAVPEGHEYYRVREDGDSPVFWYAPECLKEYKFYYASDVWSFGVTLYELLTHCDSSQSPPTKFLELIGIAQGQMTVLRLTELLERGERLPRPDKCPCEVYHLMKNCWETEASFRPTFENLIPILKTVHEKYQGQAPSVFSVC
assay.overview: Proliferation of Ba/F3-FL-TYK2-E957D cells (CellTiter-Glo)
Assay type: cell-based, mouse
test.parameters: 72 hours, read-out: Half maximal inhibitory concentration IC50 for cells Ba/F3-FL-TYK2-E957D
Structures can show the parent of a compound that is named as a salt.
So basically, if GI50 comes in under 10 nM it's yes (1), and if it's 10 nM or more it's no (0).

compound: CCN=S(=O)(c1ccc(-c2cccc(Nc3cc(NC(=O)C4CC4)nnc3C(=O)NC)c2OC)nc1)C(C)C (stereo not drawn) [Hydrochloride of WX-016]
label.value: no (0)
--
compound: CCN=S(=O)(c1cnc(-c2cccc(Nc3cc(NC(=O)C4CC4)nnc3C(=O)NC)c2OC)nc1)C(C)C (stereo not drawn) [Hydrochloride of WX-015]
label.value: no (0)
--
compound: CNC(=O)c1nnc(NC(=O)C2CC2)cc1Nc1cccc(-c2ccc(P(=O)(C(C)C)C(C)C)cc2)c1OC
label.value: no (0)
--
compound: [2H]C([2H])([2H])NC(=O)c1nnc(NC(=O)C2CC2)cc1Nc1cccc(-c2ccc(P(C)(C)=O)cc2)c1OC [Hydrochloride of WX-008]
label.value: no (0)
--
compound: CNC(=O)c1nnc(NC(=O)C2CC2)cc1Nc1cccc(-c2ncc(S(=N)(=O)C(C)C)cn2)c1OC (single isomer, unassigned) [WX-011B]
label.value: yes (1)
